The entries below are paired with their reported IC50.
Biological target: Acetylcholinesterase (Electrophorus electricus, UniProt O42275)
Sequence (O42275 whole entry): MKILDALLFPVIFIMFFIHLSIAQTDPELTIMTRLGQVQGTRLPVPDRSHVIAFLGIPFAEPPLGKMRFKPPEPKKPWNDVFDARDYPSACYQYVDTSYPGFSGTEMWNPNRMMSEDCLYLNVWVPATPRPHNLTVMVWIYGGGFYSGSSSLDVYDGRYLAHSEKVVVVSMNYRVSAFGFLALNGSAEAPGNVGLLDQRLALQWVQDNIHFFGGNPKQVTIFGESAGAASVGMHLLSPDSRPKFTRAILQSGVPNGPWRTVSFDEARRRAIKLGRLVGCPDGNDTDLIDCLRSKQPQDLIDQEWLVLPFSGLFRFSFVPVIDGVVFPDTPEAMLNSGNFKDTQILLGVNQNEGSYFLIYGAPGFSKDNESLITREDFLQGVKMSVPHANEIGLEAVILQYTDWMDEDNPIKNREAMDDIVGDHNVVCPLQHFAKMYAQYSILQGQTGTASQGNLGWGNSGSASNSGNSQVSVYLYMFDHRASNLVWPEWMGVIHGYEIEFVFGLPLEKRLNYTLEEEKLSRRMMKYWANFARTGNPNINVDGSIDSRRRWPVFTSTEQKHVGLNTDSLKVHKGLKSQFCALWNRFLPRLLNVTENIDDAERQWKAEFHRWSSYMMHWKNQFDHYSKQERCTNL

COMPOUND	IC50 / µM
CCN1C[C@]2(C)CC[C@H](OC)[C@]34C1[C@@](C)([C@@H](OC)[C@H]23)[C@@]1(O)CC[C@H]2C[C@@H]4C1(O)C(=O)O2	5.4
C=C1[C@H]2CC[C@@]3(CC[C@H]4[C@]5(CCC[C@]4(C)C4OCCN4C5)[C@@H]3C2)[C@@H]1O (stereo partly drawn)	8.4
C=C1[C@H]2C[C@H]3C4N5C[C@]6(C)CCC[C@@]47[C@@H]6[C@@]5(O)CC3([C@@H]1O)[C@@H]7C2	12.8
CCN1C[C@]2(C)CC[C@H](OC)[C@]34C1[C@H]([C@@H](O)[C@H]23)[C@@]1(O)CC[C@H]2C[C@@H]4[C@@H]1C(=O)O2	6.5
C=C1[C@H]2CC[C@@]3(CC[C@@H]4[C@]5(C)CCC[C@]4(CN4CCO[C@@H]45)[C@@H]3C2)[C@@H]1O	10.3
C=C1[C@H]2CC[C@@]3(C(=O)C[C@@H]4[C@@]5(C)CCC[C@@]4(CN(CCO)C5)[C@@H]3C2)[C@@H]1O	14.6
C=C1C[C@]23C[C@@H]4[C@@H]5[C@@]6(C)CC(=O)C[C@]57C([C@@H]2[C@@H](O)[C@H]1[C@@H](O)[C@@H]37)N4C6	10.1
C=C1CC23C[C@H]4[C@@H]5[C@@]6(C)CC[C@H](O)[C@]57C([C@@H]2[C@@H](O)[C@H]1[C@@H](O)[C@@H]37)N4C6	6.5
